Assay: yeast display, Sf9 membrane polyspecificity reagent, FACS + sequencing; frameworks hold sequencing errors
parameter_measured: polyreactivity (PSR sort gate)

Known polyreactivity (PSR sort gate) results, listed for orientation:
In: Any idea what polyreactivity (PSR sort gate) was measured for QVQLVESGGGLVQAGGSLRLSCAASGSTFGYNAMGWYRQAPGKERELVAAISRSGGRTYYADSVKGRFTISRDNAKNTVYLQMNSLKPEDTAVYFCATYYTNKVPARYYWGQGTQVTVSS ?
Out: high polyreactivity

In: Endpoint output: polyreactivity (PSR sort gate) of QVQLVESVGGLVQAGGSLRLSCADSGLTFVDYAMGWYRQAPGKERELVAAITSSGGSITYYADSVKGRFTISRDNAKNTVYLQMKSLKPEDTAVYYCNADYGIYTDSFRGPDYESRGQGTQVTVSS . Value?
Out: low polyreactivity

In: Which polyreactivity (PSR sort gate) value belongs to QVQLVESGGGLVQAGGSLRLSCAASGSTFGLYAMGWYRQAPGKERELVAAITIRGGSTYYADSVKGRFTISRDNAKNTVYLQMNSLKPEDTAVYYCAADYWYGGFEYWGQGTQVTVSS ?
Out: low polyreactivity

In: So what's the measured polyreactivity (PSR sort gate) for this one? QVQLVESGGGLVQAGGSLRLSCAASGFIFRYYAMGWYRQAPGKERELVAAISNNAGRTYYADSVKGRFTISRDNAKNTVYLQMNSLKPEDTAVYYCAARVWTGRKYDYWGQGTQVTVSS
Out: high polyreactivity

Continuing:
In: // query polyreactivity (PSR sort gate) value for entry QVQLVESGGGLVQAGGSLRLICAASGSILYRYAMGWYRQAPGKERELVASISWSDGSTYYADSVKGRFTISRDNAKNTLYLQMNSLKPEDTAVYYCAAKGWGSDSYYAYGYDYWGQGTQVTVSS
Out: low polyreactivity

---

Assay: yeast display, Sf9 membrane polyspecificity reagent, FACS + sequencing; frameworks hold sequencing errors
parameter_measured: polyreactivity (PSR sort gate)

Completed entries (count: 10):
In: Returns the measured polyreactivity (PSR sort gate) for the input sequence. Input: QVQLVESGGGLVQAGGSLRLSCAASGRIFYLYAMGWYRQAPGKERELVATISGSGGSTYYADSVKGRFTISRDNAKNTVYLLMISLKPEDTAVYYCAAVSVSSWYDYWGQGTQVSVSS
Out: low polyreactivity

In: Look up polyreactivity (PSR sort gate) for this sequence: QVQLVKSGGGLVQAGGSLRLSCAASGSTFYNAMGWYRQAPGKERELVAAISIGGSTYYADSVKGRFTISRDNAKNTVYLQMNSLKPEDTAVYYCAAVWYTSRQKYDYWGQGTQVTVSS
Out: low polyreactivity

In: // query polyreactivity (PSR sort gate) value for entry QVQLVESGGGLVQAGGSLRLSCAASGRILYQYDMGWYRQAPGKERELVASISRSGGRTYYADSVKGRFTISRDNAKNTVYLQMNSLNPEDTAVYYCAAELTYFGYPIDFDSWGQGTQVSVSS
Out: low polyreactivity

In: Requested read-out: polyreactivity (PSR sort gate). Entry: QVQLVESGGGLVQAGGSLRLSCAASGRIFGHYTMGWYRQAPGKERELVAAISWGGVRTYYADSVKGRFTISRDNAKNTVYLQMNSLKPEVTAVYYCAARWRRYVYPDGHLFWYDYWGQGTQVTVSS
Out: high polyreactivity

In: What does the data say about its polyreactivity (PSR sort gate)? Entry: QVQLVESGGGLDQAGGSLRLSCAASGKTFGNYGMGWYRQAPGKERELVAAISWTGGSTYYADSVKGRFTISRDNAKNTVYLQMNSMKPEDTAVYSCNKRPYLLFDYWGQGTQVTVSS
Out: high polyreactivity

In: Endpoint output: polyreactivity (PSR sort gate) of QVQLVESGVGLVQAGGSLRLSCAASGSIINFYAMGLYRQAPGKERELVAAINYNDINTYYADSVKGRFTISRDNAKNTVYLQMNSLKPEDTAVYYCNAELNVQYLYGYTGEYDYWGQGTQVTVSS . Value?
Out: low polyreactivity

In: Quick one: polyreactivity (PSR sort gate) of QVQLVESGGGLDQAGGSLRLSCAASGSTFQVNVMAWYRQAPGKEREFVAGISYSGGSTYYADSVKGRFTISRDNAKNTVYLQMNSLKPEDTAVYYCAAEEDYNIAGSWTYTYDYWGQGTQVTVSS ?
Out: low polyreactivity

In: If you can, please state the reported polyreactivity (PSR sort gate) value of QVQLVESGGGLVQAGGSLRLSCAASGRTFWTYAMGWYRLAPGKERELVASISKSGGSTYADSVKGRFTITRDNAKNTVYLQMNSLKPEDTAVYYCATDLSYDVWFFGPDYDYWGQGTQVTVSS .
Out: low polyreactivity

In: # query: polyreactivity (PSR sort gate) of entry QVQLVESGGGLVHAGGSLRLSCAASGSNFRYNAMGWYRQAPGKEREFYADSVKGRFTISRDNAKKTVYLQMNSLKPEDTAVYYCNATWYLWYWHDMDYWGQGTQGTVSS
Out: low polyreactivity

In: // lookup polyreactivity (PSR sort gate) for QVQLVESGGGLVQAGGSLRLSCAASGFIFQYNTMGWYRQAPGKERELVAVITRTGSTNYADSVKGRFTISRDNGKNTVYLQMNSLQPEDTAVYYCATSVYSRPRKPRYYYWGQGTQVTVSS
Out: high polyreactivity

Please find the next sequence below.
In: May I ask what polyreactivity (PSR sort gate) has been recorded for QVQLVESGGGLVQAGGSLRLSCAASGRTFYGYAMGWYRQAPGKERELVAAISSNNGRTYYADSVKGRFTISRDNAKNTVYLQMNSLKPEDTAVYYCAAEAVSILWRDYDYWGQGTQVTVSS ?
Out: low polyreactivity
